- study target: T1, human Ror2 (human, UniProt Q01974 34-403, limits assumed)
- T1 construct: also called hROR2; receptor tyrosine kinase-like orphan receptor 2
- T1 sequence (Q01974 34-403 limits assumed): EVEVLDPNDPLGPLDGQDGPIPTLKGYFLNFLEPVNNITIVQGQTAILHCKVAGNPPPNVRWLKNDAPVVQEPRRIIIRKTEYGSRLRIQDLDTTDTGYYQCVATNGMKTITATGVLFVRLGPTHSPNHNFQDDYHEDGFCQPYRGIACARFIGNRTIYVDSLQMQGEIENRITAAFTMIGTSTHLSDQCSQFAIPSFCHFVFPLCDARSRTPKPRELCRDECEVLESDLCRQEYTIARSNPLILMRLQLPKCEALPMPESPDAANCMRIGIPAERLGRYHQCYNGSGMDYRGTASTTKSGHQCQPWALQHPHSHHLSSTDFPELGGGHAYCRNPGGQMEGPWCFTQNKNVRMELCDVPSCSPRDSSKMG
- test: ELISA, human Ror2; ratio of signal at pH 6.0 to pH 7.4
readout label: ratio, pH 6.0/7.4
Give only the figure.

stdin: Identify ratio, pH 6.0/7.4 associated with the binder LC-S092D (antibody, V domains shown) VH: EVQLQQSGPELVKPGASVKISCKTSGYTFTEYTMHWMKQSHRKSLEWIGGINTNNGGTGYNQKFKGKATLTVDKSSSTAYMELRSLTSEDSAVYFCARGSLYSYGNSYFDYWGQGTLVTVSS VL: QIVLTQSPAIMSASPGEKVTITCSATSSVSYMHWFQQKPGTSPKLWIYGTSNLASGVPARFSGSGSGTSYSLTISRMEAEDAATYYCQQRSDYPFTFGQGTKVEIK
stdout: 1

stdin: Identify ratio, pH 6.0/7.4 associated with the binder LC-G049H (antibody, V domains shown) VH: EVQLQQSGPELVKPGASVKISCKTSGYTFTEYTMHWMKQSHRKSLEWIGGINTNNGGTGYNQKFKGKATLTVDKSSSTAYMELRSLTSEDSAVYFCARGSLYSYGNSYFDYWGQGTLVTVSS VL: QIVLTQSPAIMSASPGEKVTITCSATSSVSYMHWFQQKPGTSPKLWIYHTSNLASGVPARFSGSGSGTSYSLTISRMEAEDAATYYCQQRSSYPFTFGQGTKVEIK
stdout: 15.9

New cases:
stdin: Identify ratio, pH 6.0/7.4 associated with the binder LC-H033G (antibody, V domains shown) VH: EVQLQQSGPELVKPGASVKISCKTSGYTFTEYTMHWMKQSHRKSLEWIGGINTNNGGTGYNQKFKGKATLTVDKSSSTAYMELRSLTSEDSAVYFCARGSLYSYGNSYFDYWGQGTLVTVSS VL: QIVLTQSPAIMSASPGEKVTITCSATSSVSYMGWFQQKPGTSPKLWIYGTSNLASGVPARFSGSGSGTSYSLTISRMEAEDAATYYCQQRSSYPFTFGQGTKVEIK
stdout: 2.06

These data points were gathered from patent US20200002414A1.
